Reference for the values: paper PMC4408887

molecular target: WT 33-mer PH Domain epitope of Akt1 (Homo sapiens)
Non-standard residues stand in square brackets, D forms with d. Residues, ends and D or L forms follow the SMILES beside them.
quantity-measured: Kd (nM)
Numeric answer only, unit nM assumed.

Please fill in: Kd reported for CC(C)C[C@@H](NC(=O)[C@H](N)Cc1ccc(O)cc1)C(=O)N[C@H](CCC(=O)O)C(=O)N[C@H](C)C(=O)N[C@H](Cc1ccccc1)C(N)=O [yleaf] (H-[dY][dL][dE][dA][dF]-NH2) = 2800
